# assay.comment: growth suppression of PTEN-null colon cells, dose response, cell-based, HCT116 PTEN knockout (AID 1047);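 note: HCT116 colon tumor cells with PTEN knocked out; cells exposed to compound for 60 hours before readout; potency for loss of cell viability measured by luminescence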
# Format: functional
Calls of active or inactive are those of the source.
Can you tell me EC50 for the items I'm about to list?

Prompt: // lookup EC50 for Cc1ccc(C)c(NS(=O)(=O)c2ccc3c(c2)Cc2cc(S(=O)(=O)Nc4cc(C)ccc4C)ccc2-3)c1
Response: 9.63 µM (active)

Prompt: Field entry: CCOc1cc(N2CCOCC2)c(OCC)cc1NC(=O)Cc1ccccc1OC
Response: 23.9 µM (active)

Prompt: Try the molecule CCn1c(CC(=O)Nc2ccc(C)c(Cl)c2)nnc1SCC(=O)Nc1nc(C)cs1
Response: 25.4 µM (active)

Prompt: Lookup COc1ccc(-c2csc(NC(=S)NC(=O)/C=C/c3ccco3)n2)cc1OC
Response: 1.62 µM (active)

* * *

# target.system: Streptokinase A (Streptococcus pyogenes serotype M1)
# Sequence (P10520 whole entry): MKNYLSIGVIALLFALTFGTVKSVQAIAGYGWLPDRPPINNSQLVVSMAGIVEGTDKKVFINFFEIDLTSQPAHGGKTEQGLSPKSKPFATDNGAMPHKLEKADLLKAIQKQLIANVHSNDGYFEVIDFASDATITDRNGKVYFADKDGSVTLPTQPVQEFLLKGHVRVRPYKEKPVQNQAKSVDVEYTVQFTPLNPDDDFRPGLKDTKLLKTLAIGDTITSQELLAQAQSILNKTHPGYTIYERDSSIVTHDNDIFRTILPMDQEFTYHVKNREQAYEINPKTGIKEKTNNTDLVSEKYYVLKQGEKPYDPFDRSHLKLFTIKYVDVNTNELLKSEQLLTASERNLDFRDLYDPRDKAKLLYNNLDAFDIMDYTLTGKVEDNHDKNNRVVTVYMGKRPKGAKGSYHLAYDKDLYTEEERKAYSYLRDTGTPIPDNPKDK
# assay.comment: S. pyogenes streptokinase expression inhibitors, potency, dose response, plasminogen activation absorbance, OD405 (AID 1914);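 note: secreted streptokinase activity via plasminogen activation per viability signal from cell pellet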
# Format: functional, Streptococcus pyogenes M1 GAS
Active and inactive are the calls of the source.
Please go through the items and note down their EC50.

Prompt: Give the measured EC50 of COc1ccc(-n2c(/C=C/c3ccc(O)c(OC)c3)nc3ccccc3c2=O)cc1 .
Response: > 150 µM (not active)

Prompt: Ok, now Nc1c(Cl)cc(C2=NCCn3c2c2ccc([N+](=O)[O-])cc2[n+]3[O-])cc1Cl
Response: > 150 µM (not active)

Prompt: Then Cc1cccc(-n2c(N)c(-c3nc4ccccc4n3C)c3nc4ccccc4nc32)c1 ?
Response: > 150 µM (not active)

Prompt: Further, for CCOC(=O)c1c(N)sc(C(O)(C(F)(F)F)C(F)(F)F)c1-c1ccc(Cl)cc1 ?
Response: 6.86 µM (active)

Prompt: Now the same for COc1cnc(-c2ccccn2)nc1Sc1ccc(Cl)cc1
Response: > 150 µM (not active)

Prompt: Another molecule: O=C(OCc1csc(Nc2ccccc2)n1)c1ccc(Cl)cc1
Response: 34.2 µM (active)

Prompt: Would you kindly repeat that for Cc1sc2[nH]c(-c3ccccn3)nc(=O)c2c1-c1ccccc1 ?
Response: > 150 µM (not active)

Prompt: // repeat for CCCCCCCCCCOC(=O)C[n+]1c(COc2ccccc2OC)n(C)c2ccccc21 and report
Response: > 150 µM (not active)

Prompt: Entry COc1cccc(C(=O)OCC(=O)Nc2nnc(-c3ccccc3)o2)c1 please
Response: > 150 µM (not active)

Prompt: Queued: O=C1CCCc2oc3c(cc(NS(=O)(=O)c4ccc5c6c(cccc46)C(=O)N5)c4ccccc43)c21
Response: > 150 µM (not active)

Prompt: Try COc1cc(OC)cc(C(=O)NC(=S)NNC(=O)Cc2cccs2)c1 next.
Response: > 150 µM (not active)
